# experimental.target: Peroxisome proliferator-activated receptor gamma/Nuclear receptor coactivator 2 (Homo sapiens, UniProt P37231);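 note: agonist potency for raising coactivator recruitment to the receptor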
# Sequence (P37231 whole entry): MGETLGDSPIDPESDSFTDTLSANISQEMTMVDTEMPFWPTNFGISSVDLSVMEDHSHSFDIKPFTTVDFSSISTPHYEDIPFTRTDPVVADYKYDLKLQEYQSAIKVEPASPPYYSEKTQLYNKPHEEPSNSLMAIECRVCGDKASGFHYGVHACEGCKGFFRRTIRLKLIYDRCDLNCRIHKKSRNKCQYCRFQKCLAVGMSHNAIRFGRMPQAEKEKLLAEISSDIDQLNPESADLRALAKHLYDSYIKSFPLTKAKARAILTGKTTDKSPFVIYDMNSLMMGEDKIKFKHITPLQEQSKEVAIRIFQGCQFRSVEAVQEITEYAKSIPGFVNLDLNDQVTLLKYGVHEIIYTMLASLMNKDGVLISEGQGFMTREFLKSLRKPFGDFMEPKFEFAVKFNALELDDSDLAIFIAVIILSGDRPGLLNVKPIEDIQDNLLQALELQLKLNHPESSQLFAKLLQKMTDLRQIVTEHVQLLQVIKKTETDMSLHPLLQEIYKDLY
# Sequence (Q15596 whole entry, further chain): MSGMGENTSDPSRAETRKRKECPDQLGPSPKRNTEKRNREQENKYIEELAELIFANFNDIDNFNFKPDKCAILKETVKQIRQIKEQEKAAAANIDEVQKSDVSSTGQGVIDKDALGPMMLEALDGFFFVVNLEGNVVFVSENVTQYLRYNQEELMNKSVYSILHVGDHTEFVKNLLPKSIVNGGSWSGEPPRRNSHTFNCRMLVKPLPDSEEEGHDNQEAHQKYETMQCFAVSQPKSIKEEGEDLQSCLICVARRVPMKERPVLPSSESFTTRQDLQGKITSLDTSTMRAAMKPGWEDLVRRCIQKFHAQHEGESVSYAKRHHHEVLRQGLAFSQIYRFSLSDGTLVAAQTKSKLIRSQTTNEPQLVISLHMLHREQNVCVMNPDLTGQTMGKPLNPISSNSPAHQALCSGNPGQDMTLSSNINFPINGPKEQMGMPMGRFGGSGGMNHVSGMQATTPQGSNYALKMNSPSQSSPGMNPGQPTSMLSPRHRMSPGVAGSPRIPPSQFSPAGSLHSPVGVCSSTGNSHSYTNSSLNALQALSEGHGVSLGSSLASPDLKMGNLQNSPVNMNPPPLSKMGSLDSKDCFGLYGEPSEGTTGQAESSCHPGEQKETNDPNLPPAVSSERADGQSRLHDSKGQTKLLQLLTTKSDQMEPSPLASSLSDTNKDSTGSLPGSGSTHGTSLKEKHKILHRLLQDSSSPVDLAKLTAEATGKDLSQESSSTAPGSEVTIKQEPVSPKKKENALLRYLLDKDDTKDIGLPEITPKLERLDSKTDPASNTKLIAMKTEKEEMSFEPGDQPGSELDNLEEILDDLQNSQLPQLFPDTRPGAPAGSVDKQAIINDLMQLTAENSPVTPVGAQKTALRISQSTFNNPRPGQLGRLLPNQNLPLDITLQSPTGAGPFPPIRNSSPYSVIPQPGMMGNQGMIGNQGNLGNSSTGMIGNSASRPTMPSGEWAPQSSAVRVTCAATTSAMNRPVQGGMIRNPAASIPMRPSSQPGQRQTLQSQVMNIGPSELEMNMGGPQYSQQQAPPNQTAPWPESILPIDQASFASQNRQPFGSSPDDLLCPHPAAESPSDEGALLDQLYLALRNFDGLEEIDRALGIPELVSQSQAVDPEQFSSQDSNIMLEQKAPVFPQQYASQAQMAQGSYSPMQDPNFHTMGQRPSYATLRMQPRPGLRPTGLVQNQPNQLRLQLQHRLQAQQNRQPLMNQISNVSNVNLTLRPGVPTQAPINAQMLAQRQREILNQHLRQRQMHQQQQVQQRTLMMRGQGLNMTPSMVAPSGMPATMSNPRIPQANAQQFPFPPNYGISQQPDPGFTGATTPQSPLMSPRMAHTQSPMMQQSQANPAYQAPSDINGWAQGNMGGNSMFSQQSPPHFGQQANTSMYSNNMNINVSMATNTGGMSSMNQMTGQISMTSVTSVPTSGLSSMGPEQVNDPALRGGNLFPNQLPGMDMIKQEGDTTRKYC
# Type: functional
recorded.endpoint: EC50

Record excerpt, results attached:
substance.smiles	EC50
COc1ccc2c(-c3ccccc3)cc(SCC(=O)NC(N)=O)nc2c1	> 79.4 µM (not active)
CC1(C)Cc2c(C#N)c(SCC(=O)c3ccccc3)nc(N3CCOCC3)c2CO1	79.4 µM (not active)
COc1ccc(-n2nc(C(=O)NCC(=O)Nc3ccccn3)c3ccccc3c2=O)cc1Cl	19.2 µM (not active)

Next compound, EC50 to be filled in.
Lab note: "CC(=O)c1cccc(NC(=O)c2cc3ccccn3n2)c1" gave EC50 of > 79.4 µM (not active)
